# Test system: HCT116
# Protocol Details: cell viability (CellTiter-Glo) relative to plate median (fraction of plate median); higher = more viable cells
# Reported Conditions: 5 µM; treatment time 24 h; reporter: TCF4/Wnt
Provide the recorded cell viability for the entries that follow.
Returns: the value as a bare number; no unit string appended.

Query block: Recall the reported cell viability of CC(C)=CCCC1(C)C=Cc2c(O)c3c(c(CC=C(C)C)c2O1)OC12C(=CC4CC1C(C)(C)OC2(C/C=C(/C)C(=O)O)C4O)C3=O (centres undefined) when tested on HCT116.
Result block: 0.979

Query block: Recall the reported cell viability of CC[C@@]1(O)C[C@H](O[C@H]2C[C@H](N(C)C)[C@H](O)[C@H](C)O2)c2c(cc3c(c2O)C(=O)c2c(O)cccc2C3=O)[C@H]1C(=O)OC when tested on HCT116.
Result block: 0.903

Query block: Recall the reported cell viability of C[N+]1(C)CCCC(OC(=O)C(O)(c2ccccc2)c2ccccc2)C1 (centres undefined) when tested on HCT116.
Result block: 0.936

Query block: Recall the reported cell viability of [O-][n+]1ccccc1[S-].[O-][n+]1ccccc1[S-].[Zn+2] when tested on HCT116.
Result block: 0.19

This collection of values is drawn from the supplement of paper PMC6522484.
